Collected literature values of pIC50 measured for Human Factor XIIa (Homo sapiens).
pIC50: −log10 of the molar value.

Below, 3 compounds whose answers are already recorded.
1. Cc1cc(OCC23COC(CNc4cccc5c(N)nccc45)(C2)C3)cn2ccnc12 : 7.00 to 8.00
2. CN1CCc2ccc(N3CCc4c(CNS(C)(=O)=O)nn(-c5cccc(Cl)c5)c4C3=O)cc2C1=O : 5.52 to 6.00
3. CN1CCOc2ccc(N3CCc4c(C(=O)NC56CC(O)(C5)C6)nn(-c5cccc(Cl)c5F)c4C3=O)cc2C1=O : 7.00 to 8.00

Challenge: # get_value(readout= pIC50, system= Human Factor XIIa (Homo sapiens)) for `CN1CCC(CNc2ccc(CNc3cc(CO)c4cnccc4c3)cn2)CC1`
Response given: 4.40 to 5.00

Challenge: Could you do the same for `O=C(NC1CCCCC1)c1nn(-c2cccc(Cl)c2)c2c1CCN(c1cccc(CN3CCCCC3)c1)C2=O` , please?
Response given: 6.00 to 6.52
